Biological target: BRS-3 (bombesin receptor subtype-3, BB3), human (Homo sapiens, UniProt P32247)
Sequence (P32247 whole entry): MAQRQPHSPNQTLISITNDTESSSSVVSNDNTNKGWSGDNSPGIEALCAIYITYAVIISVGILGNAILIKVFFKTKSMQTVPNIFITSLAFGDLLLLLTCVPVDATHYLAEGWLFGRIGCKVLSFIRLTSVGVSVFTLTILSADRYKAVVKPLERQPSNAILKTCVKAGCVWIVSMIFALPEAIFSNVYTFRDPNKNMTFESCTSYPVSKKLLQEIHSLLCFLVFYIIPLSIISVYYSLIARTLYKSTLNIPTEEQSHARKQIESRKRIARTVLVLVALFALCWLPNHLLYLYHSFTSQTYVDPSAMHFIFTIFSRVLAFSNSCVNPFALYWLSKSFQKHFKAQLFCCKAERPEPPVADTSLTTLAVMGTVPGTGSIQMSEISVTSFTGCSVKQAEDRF
Assay: inhibition of […] MK-5046-induced IP1 accumulation (HTRF) in H1299-hBRS-3 stable cells
test_readout: pIC50
Remember the convention: pIC50 equals -log10 of concentration in molar.

Prompt: Please look up its pIC50: CC(C)=CCc1c(O)ccc(-c2coc3cc(O)cc(O)c3c2=O)c1O
Response: 6.08

---

Biological target: BRS-3 (bombesin receptor subtype-3, BB3), murine (Mus musculus)
Construct: gene Brs3
Sequence (O54798 whole entry): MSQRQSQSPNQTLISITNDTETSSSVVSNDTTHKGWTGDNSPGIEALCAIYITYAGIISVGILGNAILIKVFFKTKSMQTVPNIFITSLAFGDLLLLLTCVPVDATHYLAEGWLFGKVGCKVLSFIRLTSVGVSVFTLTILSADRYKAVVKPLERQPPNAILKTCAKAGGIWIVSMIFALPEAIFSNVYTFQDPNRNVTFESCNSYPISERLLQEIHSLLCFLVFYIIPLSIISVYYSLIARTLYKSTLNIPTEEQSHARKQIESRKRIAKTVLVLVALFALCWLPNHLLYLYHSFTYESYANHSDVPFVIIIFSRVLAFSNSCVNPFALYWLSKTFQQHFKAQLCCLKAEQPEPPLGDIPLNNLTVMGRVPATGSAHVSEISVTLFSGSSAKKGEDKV
Assay: inhibition of […] MK-5046-induced Ca2+ mobilization (FLIPR) in HEK293-mBRS-3 stable cells; also DMR (IC50 […])
Format: cell-based
test_readout: pIC50
The read-out pIC50 is expressed as -log10 of concentration in moles per litre.

Prompt: Can you look up the measured pIC50 of CC(C)=CCc1c(O)ccc(-c2coc3cc(O)cc(O)c3c2=O)c1O for me?
Response: 6.15
